Assay: Tmax in Sprague-Dawley rat at 5 mg/kg, iv measured upto 24 hrs by LC-MS/MS analysis
Type: ADME, organism-based
Details: in vivo
assay.endpoint: Tmax

# Tmax lookup, item `C[C@H]1CC[C@@H](c2nc3cccc(Cl)c3c(=O)n2-c2cccnc2)N1c1nc(N)nc(N)c1C#N`
4.8 min

---

Experiment: Clearance in Sprague-Dawley rat at 2 mg/kg, iv measured upto 24 hrs by LC-MS/MS analysis
Assay type: ADME, organism-based
Details: in vivo
assay.endpoint: clearance (mL/min/kg)
State just the number; it will be interpreted in mL/min/kg.

# clearance lookup, item `C[C@H]1CC[C@@H](c2nc3cccc(Cl)c3c(=O)n2-c2cccnc2)N1c1nc(N)nc(N)c1C#N`
30.5
